Values from patent US20240279283A1

Tested on: K. pneumoniae ATCC43816
Assay: Minimum Inhibitory Concentration (MIC) determination, K. pneumoniae ATCC43816
Assay type: cell-based
Design: unit not given here
Settings: LB broth, 5×10^5 CFU/ml, 37° C., 18 hours, scored by eye
Experimental: MICs were determined by performing two-fold serial dilutions of peptides in LB broth to a final volume of 0.1 ml in round-bottom 96-well assay plates (Corning Life Sciences No 3788). Peptides were initially resuspended in 100% DMSO to 10 mM and subsequently diluted in LB medium to the appropriate concentration. […] Plates were scored by eye, and the lowest compound concentration preventing visible growth was determined to be the MIC.
Bridge positions count the residues as written; N and C are the ends. Square brackets hold non-standard residues; d marks the D form. Peptide text beside a SMILES is read from it. 1Nal = N[C@@H](Cc1cccc2ccccc12)C(=O)O; His(π-Me) = Cn1cncc1C[C@H](N)C(=O)O; NMeY = CN[C@@H](Cc1ccc(O)cc1)C(=O)O; aThr = C[C@H](O)[C@H](N)C(=O)O; Abu = CC[C@H](N)C(=O)O
MIC K. pneumoniae ATCC43816 Wuxi::MIC reference

input: Please look up its MIC K. pneumoniae ATCC43816 Wuxi::MIC: CC[C@@H]1NC(=O)[C@H](Cc2ccccc2)NC(=O)CSC[C@@H](C(=O)NCC(N)=O)NC(=O)[C@H](Cc2cncn2C)NC(=O)[C@H](C)NC(=O)[C@H](Cc2c[nH]cn2)NC(=O)[C@H](Cc2ccc(O)cc2)N(C)C(=O)[C@H](CCCNC(=N)N)NC(=O)[C@H](CO)NC(=O)CNC(=O)[C@H](Cc2c[nH]cn2)NC(=O)[C@H](Cc2cccc3ccccc23)NC1=O (stereo in doubt)
output: 100

input: Follow-up entry: CC[C@@H]1NC(=O)[C@H](CO)NC(=O)CSC[C@@H](C(=O)NCC(N)=O)NC(=O)[C@H](Cc2cncn2C)NC(=O)[C@H](CCCNC(=N)N)NC(=O)[C@H](Cc2c[nH]cn2)NC(=O)[C@H](Cc2ccc(O)cc2)N(C)C(=O)[C@H](CCCNC(=N)N)NC(=O)[C@H](CO)NC(=O)CNC(=O)[C@H](Cc2c[nH]cn2)NC(=O)[C@H](Cc2cccc3ccccc23)NC1=O [Compound 21] ({CH2CO}-S[Abu][1Nal]HGSR[NMeY]HR[His(π-Me)]CG-NH2; thioether N-12)
output: 25

input: Follow-up entry: CC[C@@H]1NC(=O)[C@H](Cc2ccccc2)NC(=O)CSC[C@@H](C(=O)NCC(N)=O)NC(=O)[C@H](C)NC(=O)[C@H](CCCNC(=N)N)NC(=O)[C@H](Cc2c[nH]cn2)NC(=O)[C@H](Cc2ccc(O)cc2)N(C)C(=O)[C@H](CCCNC(=N)N)NC(=O)[C@H](CO)NC(=O)CNC(=O)[C@H](Cc2c[nH]cn2)NC(=O)[C@H](Cc2cccc3ccccc23)NC1=O [Compound 39] ({CH2CO}-F[Abu][1Nal]HGSR[NMeY]HRACG-NH2; thioether N-12)
output: 100

input: Follow-up entry: CC[C@@H](C)[C@H]1NC(=O)[C@@H](Cc2ccccc2)NC(=O)CSC[C@H](C(=O)NCC(N)=O)NC(=O)[C@@H](Cc2cncn2C)NC(=O)[C@@H](CCCNC(=N)N)NC(=O)[C@@H](Cc2cnc[nH]2)NC(=O)[C@@H](Cc2ccccc2)N(C)C(=O)[C@@H](CCCNC(=N)N)NC(=O)[C@@H](CO)NC(=O)CNC(=O)[C@@H](Cc2cnc[nH]2)NC(=O)[C@@H](Cc2cccc3ccccc23)NC1=O (racemic)
output: 37.5

input: Follow-up entry: CC[C@@H]1NC(=O)[C@H](Cc2ccccc2)NC(=O)CSC[C@@H](C(=O)NCC(N)=O)NC(=O)[C@H](Cc2cncn2C)NC(=O)[C@H](CCCNC(=N)N)NC(=O)[C@H](Cc2c[nH]cn2)NC(=O)[C@H](Cc2ccc(O)cc2)N(C)C(=O)[C@H](CCCNC(=N)N)NC(=O)[C@H]([C@H](C)O)NC(=O)CNC(=O)[C@H](Cc2c[nH]cn2)NC(=O)[C@H](Cc2cccc3ccccc23)NC1=O [Compound 31] ({CH2CO}-F[Abu][1Nal]HG[aThr]R[NMeY]HR[His(π-Me)]CG-NH2; thioether N-12)
output: 50
